System: hepatocarcinoma HepG2
method description: Safety, MTT test in HepG2
Type: cell-based
recorded conditions: 200 μM, 48 hours
Measured MTT, Hepatocarcinoma HepG2 of individual entries

Recorded MTT, Hepatocarcinoma HepG2, per entry:
>  <compound smiles>
O=C(/C=C/c1ccc(Cl)cc1)NCCCCCO

>  <MTT, Hepatocarcinoma HepG2>
98.19 ± 3.27 % of solvent control

$$$$
>  <compound smiles>
Cc1ccc(/C=C/C(=O)NCCCCCO)cc1

>  <MTT, Hepatocarcinoma HepG2>
100.53 ± 3.98 % of solvent control

$$$$
>  <compound smiles>
O=C(/C=C/c1ccccc1)NCCCCCO

>  <MTT, Hepatocarcinoma HepG2>
99.09 ± 1.60 % of solvent control

$$$$

Give a short answer stating reported MTT, Hepatocarcinoma HepG2 for O=C(/C=C/c1ccc(Cl)cc1)NCCO .
97.07 ± 4.00 % of solvent control

Give a short answer stating reported MTT, Hepatocarcinoma HepG2 for O=C(/C=C/c1ccc(Cl)cc1)NCCCO .
100.86 ± 6.41 % of solvent control

Where do the numbers come from? From patent US20250263376A1.
